# System: human central type cannabinoid receptor (hCB1) (Homo sapiens)
# Construct: expressed in transfected cells; host or cells: CHO cells
# Procedure Details: Binding assay (in vitro), [3H]Win55212-2 displacement, membrane fractions of human CB1-CHO
# Experimental Context: Ki value Central type receptor (C), hCB1 expressed in CHO cells, [3H]Win55212-2 2 nM, 30° C. 90 minutes
pKi: −log10 of the molar value.
# label = Satisfied if pKi >= 7 else Not satisfied

See these solved cases before continuing.
1) CCCCCOc1c(OC)ccc2cc(C(=O)NCCc3ccncc3)c(=O)[nH]c12 :: Satisfied
2) CCCCCOc1c(OC)ccc2cc(C(=O)NCCc3ccccc3F)c(=O)[nH]c12 :: Satisfied

Consider the record given below.
Prompt: # check: pKi of `CCCCCOc1ccc2cc(C(=O)NCCc3ccc(F)cc3)c(=O)[nH]c2c1OCCCCC` is greater than or equal to 7
Response: Not satisfied

###

# System: human central type cannabinoid receptor (hCB1) (Homo sapiens, UniProt P21554)
# Construct: expressed in transfected cells; host or cells: CHO cells
# Sequence (P21554 whole entry): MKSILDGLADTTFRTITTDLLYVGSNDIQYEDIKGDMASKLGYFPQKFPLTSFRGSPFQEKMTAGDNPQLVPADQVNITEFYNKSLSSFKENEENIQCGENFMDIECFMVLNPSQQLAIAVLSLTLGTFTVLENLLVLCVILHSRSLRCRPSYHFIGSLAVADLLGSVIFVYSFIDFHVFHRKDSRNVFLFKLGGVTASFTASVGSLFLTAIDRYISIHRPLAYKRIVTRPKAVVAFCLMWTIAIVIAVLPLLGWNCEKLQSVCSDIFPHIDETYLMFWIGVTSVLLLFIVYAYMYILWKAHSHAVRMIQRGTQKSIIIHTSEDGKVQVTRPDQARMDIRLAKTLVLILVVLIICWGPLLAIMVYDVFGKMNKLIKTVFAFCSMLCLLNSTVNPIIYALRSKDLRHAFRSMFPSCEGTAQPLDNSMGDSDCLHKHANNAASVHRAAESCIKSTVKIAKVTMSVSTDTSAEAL
# Procedure Details: Binding assay (in vitro), [3H]Win55212-2 displacement, membrane fractions of human CB1-CHO
# Experimental Context: hCB1 expressed in CHO cells, [3H]Win55212-2 2 nM, 30° C. 90 minutes; read-out: Ki value Central type receptor (C)
pKi: −log10 of the molar value.
# label = 1 if pKi >= 6 else -1

1. CCCOc1c(OC)ccc2cc(C(=O)NCCc3ccc(F)cc3)c(=O)[nH]c12 [Example 3-27] :: 1
2. CCCOc1c(OC)ccc2cc(C(=O)NCCc3ccncc3)c(=O)[nH]c12 [Example 3-26] :: 1
3. CCCCCOc1cc2cc(C(=O)NCCN3CCOCC3)c(=O)n(C)c2cc1OC [Example 3-44] :: 1
4. CCCCOc1c(OC)ccc2cc(CNC(=O)Nc3ccc(F)cc3)c(=O)[nH]c12 [Example 8-1] :: 1
5. CCCCCOc1cc2cc(C(=O)O)c(=O)[nH]c2cc1OC [Example 2-5] :: 1
6. CCCCCOc1cc2cc(C(=O)NCc3ccc4c(c3)OCO4)c(=O)[nH]c2cc1OC [Example 3-33] :: 1

Consider the record given below.
Prompt: # check: pKi of CCCCCOc1cc2cc(C(=O)OC)c(=O)[nH]c2cc1OC [Example 1-2] is greater than or equal to 6
Response: -1

###

# Tested on: carrageenin-induced paw edema
# Procedure Details: Carrageenin-induced paw edema model (in vivo)
# Parameters: species or system C57BL/6J mice
# Experimental Context: mice, oral in olive oil 1 hour before carrageenin, paw volume 3 hours later
Where a name gives a salt, the structure may show the parent alone.
Parameter: ED50

Solved cases (5 shown):
1) CCCCOc1c(OC)ccc2cc(C(=O)NCCc3ccncc3)c(=O)[nH]c12 [Example 3-17, hydrochloride] :: 1.39 mg/kg; p.o.
2) CCCCCOc1c(OC)ccc2cc(C(=O)NCc3ccc4c(c3)OCO4)c(=O)[nH]c12 [Example 3-5] :: <0.10 mg/kg; p.o.
3) CCCCCOc1c(OC)ccc2cc(C(=O)NCCN3CCOCC3)c(=O)[nH]c12 [Example 3-11] :: 0.40 mg/kg; p.o.
4) CCCCOc1c(OC)ccc2cc(C(=O)NCCc3ccc(F)cc3)c(=O)[nH]c12 [Example 3-15] :: 0.41 mg/kg; p.o.
5) CCCCCOc1c(OC)ccc2cc(C(=O)NCc3ccncc3)c(=O)[nH]c12 [Example 3-9] :: 0.58 mg/kg; p.o.

Next item in the queue.
ED50 value, target or system carrageenin-induced paw edema, for CCCCCOc1c(OC)ccc2cc(C(=O)NCCc3ccc(Cl)cc3)c(=O)[nH]c12 [Example 3-22] : 0.76 mg/kg; p.o.
